- Test system: Poa annua (annual bluegrass) seeds
- runDescription: Standard GAF Bioassay System (Standard Poa Bioassay), seed germination scored after 7 days
- Type: in vivo
- conditionSet: GAF Conc. 0; metal 100 μM
Reported POA BIOASSAY SCORES (±Standard Error of the Mean) values are given for each entry in this list.

Before answering, review these 5 worked examples.
• [Cl][Cu][Cl] = 0.30 ± 0.28
• O=S(=O)([O-])[O-].[Cu+2] = 0.00 ± 0.00
• [Cl-].[Cl-].[Zn+2] = 3.5 ± 0.00
• O=S(=O)([O-])[O-].[Fe+2] = 2.86 ± 0.44
• [Cl][Ni][Cl] = 1.44 ± 0.06

Let us move to another entry and its POA BIOASSAY SCORES (±Standard Error of the Mean).
// query Any idea what its POA BIOASSAY SCORES (±Standard Error of the Mean) is? The molecule is [Ca+2].[Cl-].[Cl-]
// result 4.00 ± 0.00

---

Listed here: items and their measured POA BIOASSAY SCORES (±Standard Error of the Mean).
- Test system: Poa annua (annual bluegrass) seeds
- runDescription: Standard GAF Bioassay System (Standard Poa Bioassay), seed germination scored after 7 days
- Format: in vivo
- conditionSet: GAF Conc. 2X plus metal 200 μM
Answer using only a numeral; do not append any unit.

// query Name the recorded POA BIOASSAY SCORES (±Standard Error of the Mean) for [Cl][Cu][Cl] [CuCl2] .
// result 2.69

// query How about O=S(=O)([O-])[O-].[Cu+2] [CuSO4] ?
// result 0.00

---

- System: Poa annua (annual bluegrass) seeds
- runDescription: Standard GAF Bioassay System (Standard Poa Bioassay), seed germination scored after 7 days
- Type: in vivo
- conditionSet: GAF Conc. 0; metal 12.5 μM; score 4.0 = normal germination, 1.0 = arrest
Measured POA BIOASSAY SCORES (±Standard Error of the Mean) values are reported for all entries that follow.
Output: the number by itself.

# count of solved cases: 5
- [Cl][Ni][Cl] [NiCl2]: 2.78
- O=S(=O)([O-])[O-].[Cu+2] [CuSO4]: 3.5
- [Cl-].[Cl-].[Zn+2] [ZnCl2]: 4.00
- [Ca+2].[Cl-].[Cl-] [CaCl2]: 4.00
- [Cl][Cu][Cl] [CuCl2]: 3.3

Now for another entry.
// query Provide value of POA BIOASSAY SCORES (±Standard Error of the Mean) for this record tested with Poa annua (annual bluegrass) seeds: O=S(=O)([O-])[O-].[Fe+2] [FeSO4]
// result 4.00

---

- Test system: Poa annua (annual bluegrass) seeds
- runDescription: Standard GAF Bioassay System (Standard Poa Bioassay), seed germination scored after 7 days
- Type: in vivo
- conditionSet: GAF Conc. 2X plus metal 100 μM
- Protocol: The seed of Poa annua (or other test seeds) were surface-sterilized by placing two to five grams of seeds in a 50 ml glass beaker, covering the seeds with a 50% (v/v) solution of H2SO4, and stirring vigorously for 5 minutes. The seed/acid mixture was filtered through a Gooch crucible and repeatedly rinsed with tap water to remove residual acid. The seeds were then placed in a beaker and covered with bleach (Clorox®, NaOCl, 5.25%) containing 1% (v/v) polyoxethylene sorbitan monolaurate (Tween®-20). […]
quantityMeasured: POA BIOASSAY SCORES (±Standard Error of the Mean)

// query Item under review: O=S(=O)([O-])[O-].[Fe+2] . Reported POA BIOASSAY SCORES (±Standard Error of the Mean)?
// result 1.00 ± 0.00
